- System: SN12C renal
- assay.details: NCI tumour cell line growth inhibition, 48 h
Parameter TGI: see the listing below.

// solved cases for TGI follow
Cc1ccc(-c2cc(-c3ccco3)nc(N)n2)o1 | > 100 µM
CN(C)CCNC(=O)c1ccc2ccc3cccnc3c2n1 | > 92.9 µM
CCOC(=O)c1ccc(NC2Oc3cc4c(cc3C(c3cc(OC)c(OC)c(OC)c3)C2C)OCO4)cc1 (centres undefined) | > 71.5 µM

Turning now to a further molecule:
Form field TGI, entry CCOC(=O)c1nc2c3c(ncn2n1)Oc1c(c(-c2ccccc2)nn1-c1ccccc1)C3c1ccc(OC)c(OC)c1 (centres undefined) : > 100 µM
